Source of measurements: patent EP4692079A1

# test-protocol: Pharmacokinetic test in mice
# Assay type: in vivo
# conditions: mouse; male ICR mice, intravenous administration (2.5 mg/kg), plasma
readout: half-life (h)
Write the value in h as a bare number.

Some solved cases for reference:
> print(dat)
                                   compound    readout  value.reported
1  [2H]C([2H])([2H])C(=O)N[C@H]1CC[C@H](COc2coc(CN3Cc4ccc(C(F)(F)F)cc4C3)cc2=O)CC1 [Compound 33]  half-life           0.908
2  O=C(N[C@H]1CC[C@@H](COc2coc(CN3Cc4ccc(C(F)(F)F)cc4C3)cc2=O)CC1)C1COC1 [Compound 54]  half-life            2.98
3  O=C(N[C@H]1CC[C@H](/C=C/c2coc(CN3Cc4ccc(C(F)(F)F)cc4C3)cc2=O)CC1)C1CC1 [Compound 61]  half-life            3.73

Kindly consider the entry below.
Task: Would you kindly share the measured half-life for O=C(N[C@H]1CC[C@H](COc2coc(CN3Cc4ccc(C(F)(F)F)cc4C3)cc2=O)CC1)C1CC1 [Compound 15] ?
Output: 3.54
